Provenance of the data: patent US20230235058A1

# system.tested: chimeric BTLA of humanised-BTLA mice (human extracellular region, murine transmembrane and signaling … (human; mouse, UniProt Q7TSA3 184-306, limits assumed); further: test concentration or dose not given here
# Sequence (Q7TSA3 other isoform, or with tags, fused parts or gaps mutant limits assumed): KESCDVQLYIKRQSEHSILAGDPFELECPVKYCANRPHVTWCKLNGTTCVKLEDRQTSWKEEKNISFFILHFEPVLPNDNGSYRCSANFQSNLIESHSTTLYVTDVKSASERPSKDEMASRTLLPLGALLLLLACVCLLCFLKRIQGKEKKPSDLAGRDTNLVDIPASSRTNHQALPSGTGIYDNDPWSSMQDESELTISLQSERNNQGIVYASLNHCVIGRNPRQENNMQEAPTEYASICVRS
# run.description: cell-based or functional assay
Recorded MLR (CD4 T cell proliferation) repeat 1, one value per entry.

binder: 12F11 (antibody, IgG1, V domains shown, mIgG1) VH: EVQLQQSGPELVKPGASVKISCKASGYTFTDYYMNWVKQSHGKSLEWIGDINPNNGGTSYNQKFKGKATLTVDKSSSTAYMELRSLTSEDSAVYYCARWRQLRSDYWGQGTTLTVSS VL: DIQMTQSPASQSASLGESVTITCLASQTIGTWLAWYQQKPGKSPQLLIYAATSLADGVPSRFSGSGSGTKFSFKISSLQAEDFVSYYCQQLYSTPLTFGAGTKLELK
MLR (CD4 T cell proliferation) repeat 1, % inhibition: 28
//
binder: 11.5.1 (antibody, V domains shown, mouse IgG1k hybridoma antibody) VH: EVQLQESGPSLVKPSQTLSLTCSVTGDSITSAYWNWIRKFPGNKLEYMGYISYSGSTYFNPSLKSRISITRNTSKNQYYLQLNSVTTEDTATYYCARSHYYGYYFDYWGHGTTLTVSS VL: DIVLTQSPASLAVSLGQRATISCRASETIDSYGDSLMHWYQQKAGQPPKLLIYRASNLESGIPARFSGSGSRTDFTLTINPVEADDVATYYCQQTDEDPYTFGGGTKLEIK
MLR (CD4 T cell proliferation) repeat 1, % inhibition: 23
//
binder: 4H4 (antibody, IgG1, V domains shown, mIgG1) VH: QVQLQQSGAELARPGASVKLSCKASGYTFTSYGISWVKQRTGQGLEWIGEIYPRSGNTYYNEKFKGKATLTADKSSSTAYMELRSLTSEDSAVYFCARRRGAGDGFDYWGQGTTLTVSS VL: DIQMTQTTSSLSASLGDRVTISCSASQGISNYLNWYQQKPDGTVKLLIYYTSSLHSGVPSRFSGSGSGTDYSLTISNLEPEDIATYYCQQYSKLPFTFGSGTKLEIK
MLR (CD4 T cell proliferation) repeat 1, % inhibition: 10
//
binder: 16H2 (antibody, IgG1, V domains shown, mIgG1) VH: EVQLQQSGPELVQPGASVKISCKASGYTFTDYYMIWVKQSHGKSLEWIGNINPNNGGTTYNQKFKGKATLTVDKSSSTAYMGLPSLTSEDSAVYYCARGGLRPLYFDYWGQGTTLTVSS VL: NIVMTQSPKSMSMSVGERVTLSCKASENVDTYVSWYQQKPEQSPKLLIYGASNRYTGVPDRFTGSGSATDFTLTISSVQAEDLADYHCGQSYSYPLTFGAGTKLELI
MLR (CD4 T cell proliferation) repeat 1, % inhibition: 40
//
binder: 24H7 (antibody, IgG1, V domains shown, mIgG1) VH: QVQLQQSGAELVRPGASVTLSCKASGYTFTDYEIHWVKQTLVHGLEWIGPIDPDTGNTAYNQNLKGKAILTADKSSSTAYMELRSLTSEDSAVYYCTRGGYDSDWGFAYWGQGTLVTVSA VL: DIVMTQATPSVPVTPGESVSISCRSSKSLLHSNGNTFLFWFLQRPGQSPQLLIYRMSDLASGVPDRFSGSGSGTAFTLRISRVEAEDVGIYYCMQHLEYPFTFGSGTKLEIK
MLR (CD4 T cell proliferation) repeat 1, % inhibition: 23
//
binder: 7A1 (antibody, IgG1, V domains shown, mIgG1) VH: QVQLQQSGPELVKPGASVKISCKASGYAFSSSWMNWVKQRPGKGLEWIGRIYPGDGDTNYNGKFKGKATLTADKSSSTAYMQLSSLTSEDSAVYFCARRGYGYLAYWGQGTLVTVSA VL: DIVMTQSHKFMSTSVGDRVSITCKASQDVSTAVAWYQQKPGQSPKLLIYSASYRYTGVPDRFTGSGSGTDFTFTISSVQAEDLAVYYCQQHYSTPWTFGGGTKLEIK
MLR (CD4 T cell proliferation) repeat 1, % inhibition: 23
